ASSAY_PROTOCOL: chemical genetic growth profiling, strain panel (AID 1159580);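 note: tested at 20 µM; growth read once vehicle control cultures reached saturation at 30 °C; 1 = growth at the plate median or of vehicle wells; lower values mean less growth of the strain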
EXPERIMENTAL_CONDITIONS: S. cerevisiae deletion strains, growth OD, locus YBR023C, strain chs3, active compounds read low
Among all 5,500 compounds or so, about 2,000 (36%) were called active. Another 18% or so got no clear call; they are omitted. This is one part of the list.

[
  {
    "MOLECULE": "C#CCCCCCCCCCCCC(O)CC(O)COC(C)=O (centres undefined)",
    "normalized growth": 0.756
  },
  {
    "MOLECULE": "CC(C)NNC(=O)c1ccncc1",
    "normalized growth": 1.01
  },
  {
    "MOLECULE": "CC(C(=O)O)c1ccc(C(=O)c2cccs2)cc1 (centres undefined)",
    "normalized growth": 0.995
  },
  {
    "MOLECULE": "OC(Cn1cncn1)(Cn1cncn1)c1ccc(F)cc1F",
    "normalized growth": 1.01
  },
  {
    "MOLECULE": "COc1ccc([C@H]2Oc3cc(OC)cc(OC)c3C[C@H]2O)cc1",
    "normalized growth": 1
  },
  {
    "MOLECULE": "COc1ccc2c(c1OC)C(=O)OC2[C@H]1c2c(cc3c(c2OC)OCO3)CCN1C (some centres undefined)",
    "normalized growth": 1.02
  },
  {
    "MOLECULE": "CC1(C)NC(=O)N(c2ccc([N+](=O)[O-])c(C(F)(F)F)c2)C1=O",
    "normalized growth": 0.987
  },
  {
    "MOLECULE": "CC(=O)OCC(OC(C)=O)C(OC(C)=O)C(OC(C)=O)C(OC(C)=O)C(COC(C)=O)OC(C)=O (centres undefined)",
    "normalized growth": 0.99
  },
  {
    "MOLECULE": "Cc1c(S(=O)(=O)O)oc2c1C(=O)C(=O)c1c-2ccc2c1CCCC2(C)C",
    "normalized growth": 0.943
  },
  {
    "MOLECULE": "COc1cc2occ(-c3ccccc3)c(=O)c2c(OC)c1C",
    "normalized growth": 0.966
  },
  {
    "MOLECULE": "CCNC(=O)CC[C@H](N)C(=O)O",
    "normalized growth": 0.993
  },
  {
    "MOLECULE": "CC(=O)N[C@@H](CS)C(=O)O",
    "normalized growth": 0.994
  },
  {
    "MOLECULE": "O=C(O)c1ccccc1-c1c2cc(Br)c(=O)cc-2oc2[c]([Hg])c(O)c(Br)cc12",
    "normalized growth": 1.04
  },
  {
    "MOLECULE": "CC(C)(C)CC(C)(C)c1ccc(O)c(Cc2ccc(Cl)cc2Cl)c1",
    "normalized growth": 1.02
  },
  {
    "MOLECULE": "Cc1coc2c1C(=O)C(=O)c1c-2ccc2c1CCCC2(C)C",
    "normalized growth": 0.951
  },
  {
    "MOLECULE": "COC(=O)C(O)c1ccccc1 (centres undefined)",
    "normalized growth": 1.01
  },
  {
    "MOLECULE": "COc1ccc2c(c1)O[C@H]1c3ccc(OC)cc3OC[C@@H]21",
    "normalized growth": 1.02
  },
  {
    "MOLECULE": "CC(C)NC[C@H](O)COc1cccc2ccccc12",
    "normalized growth": 0.99
  },
  {
    "MOLECULE": "OCc1ccccc1O",
    "normalized growth": 1.02
  },
  {
    "MOLECULE": "CN1C(C(=O)Nc2ccccn2)=C(O)c2ccccc2S1(=O)=O",
    "normalized growth": 0.982
  },
  {
    "MOLECULE": "O=C(O)CN1C(=O)c2cccc3cccc(c23)C1=O",
    "normalized growth": 0.976
  },
  {
    "MOLECULE": "O=C1CC2OCC=C3CN4CC[C@]56c7ccccc7N1C5[C@H]2[C@H]3CC46 (some centres undefined)",
    "normalized growth": 1.03
  },
  {
    "MOLECULE": "CC(=O)OCC[C@H](C)CCC=C(C)C",
    "normalized growth": 0.995
  },
  {
    "MOLECULE": "CCOC(=O)c1ccc(O)cc1",
    "normalized growth": 1.01
  }
]
